The entries below are paired with their reported IC50.
subjectOfTest: Bursicon receptor (Drosophila rickets, LGR2)
testProtocol: LGR2 bursicon receptor antagonists, dose response, cell-based, HEK293, CRE-luciferase, beta-gal normalized, dry powder, set 4 (AID 743504)
experimentalParameters: bursicon-stimulated, antagonist
Active and inactive are the calls of the source.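 How the source made its calls: active means compounds blocking the hormone-driven reporter light with IC50 under 35 µM; inactive means IC50 above 35 µM, or no measured IC50.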

Reference set, count: 4
| chemSmiles | IC50 |
| --- | --- |
| C[C@H](CO)N1C[C@H](C)[C@H](CN(C)C(=O)Nc2ccccc2)OCCCC[C@H](C)Oc2ccc(NC(=O)C3CCCCC3)cc2C1=O | < 35 µM |
| C[C@@H]1CCCCO[C@H](CN(C)C(=O)Nc2ccc(F)cc2)[C@H](C)CN([C@@H](C)CO)C(=O)c2cc(NC(=O)C3CCCCC3)ccc2O1 | > 35 µM (inactive) |
| COc1ccc(NC(=O)N(C)C[C@@H]2OCCCC[C@H](C)Oc3ccc(NC(=O)C4CCCCC4)cc3C(=O)N([C@H](C)CO)C[C@@H]2C)cc1 | < 35 µM |
| C[C@H](CO)N1C[C@H](C)[C@H](CN(C)C(=O)Nc2ccc(F)cc2)OCCCC[C@H](C)Oc2ccc(NC(=O)C3CCCCC3)cc2C1=O | < 35 µM |

# next molecule below
Kindly note the recorded IC50 for "C[C@H](CO)N1C[C@H](C)[C@H](CN(C)C(=O)Nc2ccc3c(c2)OCO3)OCCCC[C@H](C)Oc2ccc(NC(=O)C3CCCCC3)cc2C1=O" , which is < 35 µM
